# melting point per entry

Some solved cases for reference:
{"compound": "Nc1ccn(CC(=O)N(CC(=O)O)CC(=O)O)c(=O)n1 [C-di-acid (21)]", "endpoint_value": "190 to 193 °C"}
{"compound": "O=C(O)CN(CC(=O)O)C(=O)Cn1ccc(=O)[nH]c1=O [U-di-acid (10)]", "endpoint_value": "118 to 120 °C"}

Task item: Read off the recorded melting point for Nc1ccn(CC(=O)NCC(=O)O)c(=O)n1 [C-acid (14)]
Reply: > 200 °C

Task item: Read off the recorded melting point for O=C(O)CN(CCO)C(=O)Cn1ccc(=O)[nH]c1=O [U-ol-acid (8)]
Reply: 177 to 179 °C

The values you see were collected from paper PMC6272279.
